Test system: Human papillomavirus type 1a protein E7 (residues 44-93)
Assay: small molecules binding HPV E7 44-93 – biochemical, small-molecule microarray, residues 44-93, 635 nm fluorescence, primary screen (AID 1108);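 further: E7 fragment applied at 1 µg/mL in TBST for 1 h at 4 C; score combines spot fluorescence with its signal to noise ratio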
Details: fluorescence 635 nm, higher = more signal
Binary classification by composite z-score, with 0.8 as an inclusive lower bound for TRUE; all other cases are FALSE.

Solved cases (5 shown):
*Q* Record CN1C(=O)C2C=CC(C(O)c3ccc(F)cc3)N(N3CCCCC3)C2C1=O (stereo not given) ; criterion: composite z-score no lower than 0.8. Met?
*A* FALSE

*Q* Record CCOC(=O)C[C@H]1[C@H](OC(=O)c2ccccc2-c2ccccc2)[C@@H](NC(=O)c2ccccc2)c2cc(OCCCO)ccc2N1C(=O)Cc1ccc(OC)cc1 ; criterion: composite z-score no lower than 0.8. Met?
*A* FALSE

*Q* Record OCc1ccc(-c2cc[n+](Cc3cccc(OC(F)(F)F)c3)cc2)cc1 ; criterion: composite z-score no lower than 0.8. Met?
*A* TRUE

*Q* Record CN(C)C(=O)[C@@]1(CCC(=O)OC(C)(C)C)COC(c2ccc(OCCCO)cc2)=N1 ; criterion: composite z-score no lower than 0.8. Met?
*A* TRUE

*Q* Record [N-]=[N+]=NCc1ccccc1C[C@]1(C(=O)NCCN2CCOCC2)N=C(c2ccc(OCCCO)cc2)O[C@H]1c1ccccc1 ; criterion: composite z-score no lower than 0.8. Met?
*A* TRUE

Continuing:
*Q* Record CO[C@H]1O[C@H](CO)[C@@H](OC(=O)c2ccc(Br)cc2)[C@@H]2OC(=O)[C@H](Cc3cccc(Br)c3)C/C=C/C[C@@H](Cc3cccc(Br)c3)C(=O)O[C@@H]12 ; criterion: composite z-score no lower than 0.8. Met?
*A* FALSE

*Q* Record COC(=O)C(CC#Cc1ccc2c(c1)[C@]1(C(=O)N2)[C@H](C(=O)N2CCc3cc(OC)c(OC)cc3C2)[C@H]2C(=O)O[C@H](c3ccccc3)[C@H](c3ccccc3)N2[C@@H]1c1ccc(OCCO)cc1)C(=O)OC ; criterion: composite z-score no lower than 0.8. Met?
*A* TRUE

*Q* Record C=C(COC)/C(=C/C[C@@H](OC(=O)c1ccncc1)c1cccc(OCCO)c1)c1cc(C(=O)OC)ccc1OC ; criterion: composite z-score no lower than 0.8. Met?
*A* FALSE
